// provenance: patent US8329726B2

# target-or-system: recombinant human c-Met/HGF receptor (Homo sapiens, UniProt P08581)
# Construct: His tag (pBlueBacHis2A vector); made in house; host or cells: Hi-5 cells (Trichoplusia ni), baculovirus
# Sequence (P08581 1078-1337): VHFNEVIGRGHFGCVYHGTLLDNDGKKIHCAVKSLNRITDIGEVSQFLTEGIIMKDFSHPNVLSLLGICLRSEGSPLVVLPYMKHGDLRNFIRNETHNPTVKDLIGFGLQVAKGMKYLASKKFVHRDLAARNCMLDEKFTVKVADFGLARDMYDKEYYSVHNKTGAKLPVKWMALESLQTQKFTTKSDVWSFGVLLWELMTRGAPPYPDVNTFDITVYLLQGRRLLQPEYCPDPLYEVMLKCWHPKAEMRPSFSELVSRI
# assay-summary: In vitro receptor tyrosine kinase assay (DELFIA), c-Met/HGF receptor
# Type: biochemical
# assay-context: read-out: CMET IC50
pIC50: −log10 of the molar value.
Entries and their pIC50 values follow.

// below: answered compounds
compound=COc1ccccc1NC(=O)CC(=O)Nc1ccc(Oc2ccnc3cc(-c4cn(CCN(C)C)cn4)sc23)c(F)c1 observed_measurement="6.60 to 7.30"
compound=CCn1cnc(-c2cc3nccc(Oc4ccc(NC(=O)C5(C(=O)Nc6ccccc6F)CC5)cc4F)c3s2)c1 observed_measurement="> 7.30"
compound=CCn1cnc(-c2cc3nccc(Oc4ccc(NC(=O)CC(=O)Nc5ccccc5C(F)(F)F)cc4F)c3s2)c1 observed_measurement="6.60 to 7.30"
compound="Cn1cnc(-c2cc3nccc(Nc4ccc(NC(=O)C5CCN(c6ccccc6)C5=O)cc4F)c3s2)c1 (stereo not shown)" observed_measurement="6.60 to 7.30"

Now, please, on to the next compound.
Problem: Find pIC50 (recombinant human c-Met/HGF receptor (Homo sapiens, UniProt P08581)) for the entry O=C(CC(=O)Nc1ccc(Oc2ccnc3cc(-c4ccc(CN5CCNCC5)cc4)sc23)c(F)c1)Nc1ccccc1
Result: > 7.30
